Target: ERK2 enzyme (Homo sapiens (Human))
Sequence (P28482 whole entry): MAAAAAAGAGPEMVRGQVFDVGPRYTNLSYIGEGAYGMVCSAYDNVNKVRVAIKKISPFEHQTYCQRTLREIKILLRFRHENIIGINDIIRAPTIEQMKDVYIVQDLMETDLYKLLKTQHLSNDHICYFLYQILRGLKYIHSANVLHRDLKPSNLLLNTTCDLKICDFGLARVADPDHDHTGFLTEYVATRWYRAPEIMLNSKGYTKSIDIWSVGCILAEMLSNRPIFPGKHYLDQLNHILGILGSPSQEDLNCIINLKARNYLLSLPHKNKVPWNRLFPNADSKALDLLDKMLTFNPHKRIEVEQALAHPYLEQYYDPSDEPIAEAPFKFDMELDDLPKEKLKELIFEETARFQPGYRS
Run description: Inhibition assay of ERK (Z'-LYTE kinase assay, Ser/Thr 3 peptide substrate)
Assay type: biochemical
Cond: In vitro ERK2 enzyme, 100 μM ATP
The entries below are paired with their reported IC50.

COc1ncc(-c2n[nH]c3cc4c(cc23)CN(Cc2cccc(Cl)c2)CC(=O)N4)cn1	> 1000 nM
COc1ncc(-c2n[nH]c3cc4c(cc23)CN(C)C(=O)N4)cn1	50 to 250 nM
O=C1Nc2cc3[nH]nc(-c4ccncc4)c3cc2CN1Cc1ccccc1	< 50 nM

For COCCOCCN1Cc2cc3c(-c4ccnc(C)c4)n[nH]c3cc2NC1=O on ERK2 enzyme (Homo sapiens (Human)), measured IC50 was < 50 nM
